These data points were gathered from the supplement of paper PMC11780869.

Below: a set of entries, each annotated with reported cleaved RNA product abundance.
system: Bacillus subtilis; experiment: cleaved RNA product abundance (RNA/gDNA barcode ratio) relative to median wild-type variant (ratio to wild type); higher = more accumulation of the downstream cleavage product; settings: experiment (reporter, strain, medium): exp 8a: truncated aprE reporter, strain BJT201 with 2% xylose (RNase J1 expressed); cleavage site: glnRA (positions -5 to +31 mutated)
endpoint: cleaved RNA product abundance

> print(dat)
                                   seqstring  recordedvalue
 1  CGACATGTCCCGCTTCTTTCATTAATCCGTTAGCTACTGTTTTGCTATATGCATTTACCTTTTAAGAGGAGGAAT          0.368
 2  CGACATGTCCCGCTTCTTTCATTAATCCGTTAGTAACTGTTTTGCTATATACATTTACCTTTTAAGAGGAGGAAT          0.379
 3  CGACATGTCCCGCTTCTTTCATTAATTCGTTAGCAACTGTTTTCCTATATACATTTACCTTTTAAGAGGAGGAAT          0.485
 4  CGACATGTCCCGCTTCTTTCATTAATCCGTTAGCAATTGTTTTGCTATATACATTGACTTTTTAAGAGGAGGAAT           1.33
 5  CGACATGTCCCGCTTCTTTCATTAATCCGTTAGCAACTGTTTTGCTACATACACTTACCTTTTAAGAGGAGGAAT          0.213
 6  CGACATGTCCCGCTTCTTTCATTATTCCGTTAGCAACTGTTTTGCTATACACATTTACCTTTTAAGAGGAGGAAT          0.807
 7  CGACATGTCCCGCTTCTTTCATTAAACCGTTAGCAACTGTTTTGCTATATACATTTACCATTTAAGAGGAGGAAT           1.29
 8  CGACATGTCCCGCTTCTTTCATTAATACGTTAGCAATTGTTTTGCTATATACATTTACCTTTTAAGAGGAGGAAT          0.823
 9  CGACATGTCCCGCTTCTTTCATTACTCCGTTAGCTACTGTTTTGCTATATACATTTACCTTTTAAGAGGAGGAAT          0.923
10  CGACATGTCCCGCTTCTTTCATTAATCCGTTAGCAACTGTTTTGCTATTTACATCTACCTTTTAAGAGGAGGAAT          0.276
11  CGACATGTCCCGCTTCTTTCATTACTCCGTTAGCAACTGTTTTGCTATGTACATTTACCTTTTAAGAGGAGGAAT          0.117
12  CGACATGTCCCGCTTCTTTCATTAATCCGTAAGCTACTGTTTTGCTATATACATTTACCTTTTAAGAGGAGGAAT          0.123
13  CGACATGTCCCGCTTCTTTCATTAATACGTTAGTAACTGTTTTGCTATATACATTTACCTTTTAAGAGGAGGAAT          0.334
14  CGACATGTCCCGCTTCTTTCATTAATCCATTAGCAACTGTTTGGCTATATACATTTACCTTTTAAGAGGAGGAAT          0.386
15  CGACATGTCCCGCTTCTTTCATTAATCAGTTAGCAACTGTTTTGCTATATACATTTATCTTTTAAGAGGAGGAAT          0.854
16  CGACATGTCCCGCTTCTTTCATTAATCCGTTAACAACTGTTTTGCTATATACATTTAACTTTTAAGAGGAGGAAT           0.24

---

tested on: Bacillus subtilis; test: cleaved RNA product abundance (RNA/gDNA barcode ratio) relative to median wild-type variant (ratio to wild type); higher = more accumulation of the downstream cleavage product; conditions: experiment (reporter, strain, medium): exp 2b: truncated aprE reporter, strain BJT200; cleavage site: cggR-gapA (positions -7 to +36 mutated)
Below: a set of entries, each annotated with reported cleaved RNA product abundance.
endpoint: cleaved RNA product abundance

> print(dat)
                                  seqstring  recordedvalue
1  ACAGACGAAGGAGCCGCAAAGAAGTTATTAATGGATGAATAATCCCTCACTATAAATATCTCTCACTTATTTAAA         0.0821
2  ACAGACGAAGGAGCCGCAAAGAAGTTATTAACGGATGAATAATCCCTCAATATAAATCTCTCTCACTTATTTAAA          0.108
3  ACAGACGAAGGAGCCGCAAAGAAGTTATTAAGGGATAAATAACCCCTCAATATAAATATCTCTCACTTATTTAAA          0.423

---

test system: Bacillus subtilis; test: cleaved RNA product abundance (RNA/gDNA barcode ratio) relative to median wild-type variant (ratio to wild type); higher = more accumulation of the downstream cleavage product; details: experiment (reporter, strain, medium): exp 4a: truncated aprE reporter, strain BJT201 with 2% xylose (RNase J1 expressed); cleavage site: cggR-gapA (positions -7 to +36 mutated)
endpoint: cleaved RNA product abundance

> print(dat)
                                  seqstring      subjectoftest  recordedvalue
1  ACAGACGAAGGAGCCGCAAAGAAGTTATTAAAGGATGATTAATCCCTCAATATAAATATCTCTCACTTATTTAAA  Bacillus subtilis          0.184
2  ACAGACGAAGGAGCCGCAAAGAAGTTATTAAGGGATGAATAATCCCGCATTATAAATATCTCTCACTTATTTAAA  Bacillus subtilis          0.101
3  ACAGACGAAGGAGCCGCAAAGAAGTTATTAAGCGATGAATAATCCCTCAATATTAATATCTCTCACTTATTTAAA  Bacillus subtilis          0.151
4  ACAGACGAAGGAGCCGCAATGAAGTTATTAAGGGATTAATAATCCCTCAATATAAATATCTCTCACTTATTTAAA  Bacillus subtilis           1.06
